- Target under test: LOXL1 (Homo sapiens)
- Sequence (Q08397 96-574): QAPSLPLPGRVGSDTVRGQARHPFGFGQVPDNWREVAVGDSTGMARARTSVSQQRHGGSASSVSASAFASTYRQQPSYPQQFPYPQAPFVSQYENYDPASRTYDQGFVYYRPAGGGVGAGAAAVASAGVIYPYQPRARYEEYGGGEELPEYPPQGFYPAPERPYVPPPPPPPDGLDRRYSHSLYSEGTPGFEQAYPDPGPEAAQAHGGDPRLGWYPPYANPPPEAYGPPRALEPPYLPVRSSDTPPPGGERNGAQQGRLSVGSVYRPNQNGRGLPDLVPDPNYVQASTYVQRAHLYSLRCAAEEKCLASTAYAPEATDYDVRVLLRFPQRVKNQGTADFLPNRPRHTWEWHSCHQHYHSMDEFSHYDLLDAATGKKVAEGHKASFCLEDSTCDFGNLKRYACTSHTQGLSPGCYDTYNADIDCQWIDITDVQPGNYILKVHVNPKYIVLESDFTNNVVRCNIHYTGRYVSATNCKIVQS
- Assay: Time-dependent inhibition of LOXL1, Amplex Red oxidation assay
- Type: biochemical
- Protocol conditions: 2 h incubation, 37 °C
Value kind: IC50 (nM)
The response must be a number in nM with no trailing unit.

Readout IC50 for NC/C(=C\F)CS(=O)(=O)c1ccccc1 , test system LOXL1 (Homo sapiens), was 1700

====

- Target under test: Human recombinant LOXL3 (Homo sapiens, UniProt P58215)
- Sequence (P58215 26-753): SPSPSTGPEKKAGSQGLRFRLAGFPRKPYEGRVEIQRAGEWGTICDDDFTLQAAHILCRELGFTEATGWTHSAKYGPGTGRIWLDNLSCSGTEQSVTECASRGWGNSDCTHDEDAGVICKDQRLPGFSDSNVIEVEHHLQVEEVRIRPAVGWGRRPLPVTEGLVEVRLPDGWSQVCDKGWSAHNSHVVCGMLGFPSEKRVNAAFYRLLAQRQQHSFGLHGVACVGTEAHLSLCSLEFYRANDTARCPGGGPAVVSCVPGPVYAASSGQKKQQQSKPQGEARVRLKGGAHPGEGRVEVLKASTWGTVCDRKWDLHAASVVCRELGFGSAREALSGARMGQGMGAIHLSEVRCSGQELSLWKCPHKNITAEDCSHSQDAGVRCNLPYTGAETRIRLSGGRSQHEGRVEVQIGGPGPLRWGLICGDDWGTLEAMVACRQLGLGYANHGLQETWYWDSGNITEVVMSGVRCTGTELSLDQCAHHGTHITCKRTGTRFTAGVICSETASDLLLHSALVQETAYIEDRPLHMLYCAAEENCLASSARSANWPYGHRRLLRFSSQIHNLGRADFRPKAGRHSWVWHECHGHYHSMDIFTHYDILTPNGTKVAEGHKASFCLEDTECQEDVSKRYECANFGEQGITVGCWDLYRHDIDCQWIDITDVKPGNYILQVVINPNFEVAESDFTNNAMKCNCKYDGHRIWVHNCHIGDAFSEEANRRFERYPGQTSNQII
- Assay: LOXL3 inhibition, Amplex Red oxidation assay
- Protocol conditions: 30 min incubation with enzyme at 37 °C
Value kind: IC50 (µM)
The response must be a number in µM with no trailing unit.

{"Compound": "N#CCCN [BAPN, β-aminopropionitrile, reference compound]", "Target under test": "Human recombinant LOXL3 (Homo sapiens, UniProt P58215)", "IC50, µM": 0.5}

Now for a further compound.
Value of measured IC50 for the entry NC/C(=C\F)CS(=O)(=O)c1ccccc1 : 5.9

====

- Target under test: Bovine LOX (Bos taurus)
- Sequence (P33072 170-418): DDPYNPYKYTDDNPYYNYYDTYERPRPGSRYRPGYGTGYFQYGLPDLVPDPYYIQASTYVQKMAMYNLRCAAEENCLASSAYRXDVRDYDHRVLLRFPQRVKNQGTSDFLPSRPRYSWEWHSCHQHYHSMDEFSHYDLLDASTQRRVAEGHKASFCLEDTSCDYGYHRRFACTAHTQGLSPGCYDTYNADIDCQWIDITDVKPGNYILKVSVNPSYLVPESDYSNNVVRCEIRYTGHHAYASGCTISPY
- Assay: LOX inhibition, hydrogen peroxide Amplex Red oxidation assay
- Format: biochemical
- Protocol conditions: 2 h incubation with enzyme at 37 °C
pIC50: −log10 of the molar value.
Value kind: pIC50

Record excerpt, results attached:
{"Cpd smiles": "NC/C(=C\\F)CS(=O)(=O)c1cccc([N+](=O)[O-])c1", "Endpoint result": "> 5.70"}
{"Cpd smiles": "Cc1ccccc1S(=O)(=O)C/C(=C/F)CN", "Endpoint result": "> 5.30"}
{"Cpd smiles": "Cc1ccc(S(=O)(=O)C/C(=C/F)CN)cc1C#N", "Endpoint result": "> 5.70"}
{"Cpd smiles": "Cc1ccn(-c2cccc(S(=O)(=O)C/C(=C/F)CN)c2)n1", "Endpoint result": "> 5.70"}
{"Cpd smiles": "Cc1cccc(S(=O)(=O)C/C(=C/F)CN)c1", "Endpoint result": "> 5.70"}

Now for a further compound.
Readout pIC50 for NC/C(=C\F)CS(=O)(=O)c1ccc(C(=O)O)cc1 , test system Bovine LOX (Bos taurus), was > 5.00

These measurements were taken from patent US20260364030A1.
